Kindly state IC50 for each of the entries shown.
# Test target: human FAP (Homo sapiens)
# Construct: the biotinylated His, Avi tag, human FAP (26-760, FAP-H82Q6); His; Avi tag (biotinylated); purchased AcroBiosystems FAP-H82Q6
# Sequence (Q12884 26-760): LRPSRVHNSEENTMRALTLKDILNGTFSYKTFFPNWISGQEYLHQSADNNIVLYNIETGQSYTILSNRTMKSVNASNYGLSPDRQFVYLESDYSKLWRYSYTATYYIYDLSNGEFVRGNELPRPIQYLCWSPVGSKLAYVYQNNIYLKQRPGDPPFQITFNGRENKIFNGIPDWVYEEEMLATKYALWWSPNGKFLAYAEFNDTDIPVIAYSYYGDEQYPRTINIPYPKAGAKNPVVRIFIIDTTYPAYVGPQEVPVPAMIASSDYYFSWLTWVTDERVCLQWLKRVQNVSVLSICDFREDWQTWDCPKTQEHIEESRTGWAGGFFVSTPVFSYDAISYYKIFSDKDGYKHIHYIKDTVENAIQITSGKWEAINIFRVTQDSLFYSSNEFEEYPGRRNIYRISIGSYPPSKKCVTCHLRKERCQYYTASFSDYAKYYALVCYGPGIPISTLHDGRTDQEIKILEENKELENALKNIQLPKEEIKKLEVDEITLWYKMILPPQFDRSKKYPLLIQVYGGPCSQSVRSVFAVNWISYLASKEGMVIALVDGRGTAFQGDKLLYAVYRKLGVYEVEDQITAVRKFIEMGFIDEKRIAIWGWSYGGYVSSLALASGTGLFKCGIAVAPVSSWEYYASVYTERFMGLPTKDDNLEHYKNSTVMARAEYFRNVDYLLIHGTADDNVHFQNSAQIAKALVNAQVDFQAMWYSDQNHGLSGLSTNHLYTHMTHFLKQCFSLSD
# Method description: Enzymatic FAP competition assay (Z-Gly-Pro-AMC fluorescence), human FAP
# Format: biochemical
# Condition details: read-out: h. FAP, Enz., IC50
Starred links: 1 amine or outer side, 2 acyl side, 3 side chain; linkers in the order of their positions; H or OH if unused. Non-standard residues stand in square brackets, D forms with d. Primed or numbered codes have the meaning given here. *: point of attachment. F(4amPEG2NHDOTA-Lu) = lutetium complex of (S)-2,2',2''-(10-(1-(4-(2-amino-2-carboxyethyl)phenyl)-3,12-dioxo-5,8-dioxa-2,11-diazatridecan-13-yl)-1,4,7,10-tetraazacyclododecane-1,4,7-triyl)triacetic acid (Phe with 4-aminomethyl-PEG2-DOTA-Lu), O=C([O-])CN1CCN(CC(=O)[O-])CCN(CC(=O)NCCOCCOCC(=O)NCc2ccc(C[C@H](N[*:1])C(=O)[*:2])cc2)CCN(CC(=O)[O-])CC1.[Lu+3]; F4(amMeGlyDOTALu) = lutetium complex of (S)-2,2',2''-(10-(2-((2-((4-(2-amino-2-carboxyethyl)benzyl)amino)-2-oxoethyl)(methyl)amino)-2-oxoethyl)-1,4,7,10-tetraazacyclododecane-1,4,7-triyl)triacetic acid (Phe with 4-aminomethyl-N-methyl-Gly-D, CN(CC(=O)NCc1ccc(C[C@H](N[*:1])C(=O)[*:2])cc1)C(=O)CN1CCN(CC(=O)[O-])CCN(CC(=O)[O-])CCN(CC(=O)[O-])CC1.[Lu+3]; F(4amPEG2NHNODAGA-Ga) = gallium complex of 2,2'-(7-(1-(4-((S)-2-amino-2-carboxyethyl)phenyl)-15-carboxy-3,12-dioxo-5,8-dioxa-2,11-diazapentadecan-15-yl)-1,4,7-triazonane-1,4-diyl)diacetic acid (Phe with 4-aminomethyl-PEG2-NODAGA-Ga), O=C([O-])CN1CCN(CC(=O)[O-])CCN(C(CCC(=O)NCCOCCOCC(=O)NCc2ccc(C[C@H](N[*:1])C(=O)[*:2])cc2)C(=O)[O-])CC1.[Ga+3]; F4(amBAlaDOTALu) = lutetium complex of (S)-2,2',2''-(10-(2-((3-((4-(2-amino-2-carboxyethyl)benzyl)amino)-3-oxopropyl)amino)-2-oxoethyl)-1,4,7,10-tetraazacyclododecane-1,4,7-triyl)triacetic acid (Phe with 4-aminomethyl-βAla-DOTA-Lu), O=C([O-])CN1CCN(CC(=O)[O-])CCN(CC(=O)NCCC(=O)NCc2ccc(C[C@H](N[*:1])C(=O)[*:2])cc2)CCN(CC(=O)[O-])CC1.[Lu+3]; F(4OEtNHDOTA-Lu) = lutetium complex of (S)-2,2',2''-(10-(2-((2-(4-(2-amino-2-carboxyethyl)phenoxy)ethyl)amino)-2-oxoethyl)-1,4,7,10-tetraazacyclododecane-1,4,7-triyl)triacetic acid (Phe with 4-O-ethylamino-DOTA-Lu), O=C([O-])CN1CCN(CC(=O)[O-])CCN(CC(=O)NCCOc2ccc(C[C@H](N[*:1])C(=O)[*:2])cc2)CCN(CC(=O)[O-])CC1.[Lu+3]; F(4OEtNHDOTA-Ga) = gallium complex of (S)-2,2',2''-(10-(2-((2-(4-(2-amino-2-carboxyethyl)phenoxy)ethyl)amino)-2-oxoethyl)-1,4,7,10-tetraazacyclododecane-1,4,7-triyl)triacetic acid (Phe with 4-O-ethylamino-DOTA-Ga), O=C([O-])CN1CCN(CC(=O)[O-])CCN(CC(=O)NCCOc2ccc(C[C@H](N[*:1])C(=O)[*:2])cc2)CCN(CC(=O)[O-])CC1.[Ga+3]; F(4OEtnHNODAGA-Lu) = lutetium complex of 2,2'-(7-(4-((2-(4-((S)-2-amino-2-carboxyethyl)phenoxy)ethyl)amino)-1-carboxy-4-oxobutyl)-1,4,7-triazonane-1,4-diyl)diacetic acid (Phe with 4-O-ethylamino-NODAGA-Lu); K(COpipzaa) = N6-(4-(carboxymethyl)piperazine-1-carbonyl)-L-lysine, O=C(NCCCC[C@H](N[*:1])C(=O)[*:2])N1CCN(CC(=O)[*:3])CC1; Q(Pyrro(2CN4F2)) = 2-amino-5-(2-cyano-4,4-difluoropyrrolidin-1-yl)-5-oxopentanoic acid; COpipzaa″ = 4-(carboxymethyl)piperazine-1-carbonyl on Lys N6, O=C(O)CN1CCN(C(=O)*)CC1; COpipzaa = 4-(carboxymethyl)piperazine-1-carbonyl, O=C(O)CN1CCN(C(=O)*)CC1; F(4amPEG2NHRDOTAGA-Ga) = Phe with 4-aminomethyl-PEG2-NH-DOTAGA, Ga complex; F(4amPEG2NHRDOTAGA-Lu) = Phe with 4-aminomethyl-PEG2-NH-DOTAGA, Lu complex; F(4OEtNHRDOTAGA-Lu) = Phe with 4-O-ethyl-NH-DOTAGA, Lu complex; hS(Pr) = O-propyl-L-homoserine, CCCOCC[C@H](N[*:1])C(=O)[*:2]; NMeF = CN[C@@H](Cc1ccccc1)C(=O)O; Ahp(2) = CCCCC[C@H](N)C(=O)O
Note: unit nM is implicit; provide only the numeric part.

Report the value of IC50 obtained on human FAP (Homo sapiens) for Gly-Gly-NMePhe-F(4OEtNHDOTA-Lu)-Ahp-Trp-Gly-K(COpipzaa)-Asp-D-Pro (cyclo(GG[NMeF][F(4OEtNHDOTA-Lu)][Ahp(2)]WG[K(COpipzaa)]D[dP]); also: Lu complex of DOTA) [Example C27] . 0.026

Report the value of IC50 obtained on human FAP (Homo sapiens) for hSer-Gly-NMePhe-F(4amPEG2NHDOTA-Lu)-hS(Pr)-Trp-Gly-K(COpipzaa)-Asp-D-Pro [Example C4] . 0.011

Report the value of IC50 obtained on human FAP (Homo sapiens) for Gly-Gly-NMe3PyA-F(4amPEG2NHDOTA-Lu)-hS(Pr)-W7N-Gly-K(COpipzaa)-Asp-D-Pro [Example C3] . 0.007

Report the value of IC50 obtained on human FAP (Homo sapiens) for Gly-Gly-NMePhe-F(4OEtnHNODAGA-Lu)-Ahp-Trp-Gly-Tyr-Asp-D-Pro (cyclo(GG[NMeF][F(4OEtnHNODAGA-Lu)][Ahp(2)]WGYD[dP]); also: Lu complex) [Example C30] . 0.034

Report the value of IC50 obtained on human FAP (Homo sapiens) for Gly-Gly-NMePhe-F(4amPEG2NHRDOTAGA-Lu)-hS(Pr)-Trp-Gly-K(COpipzaa)-Asp-D-Pro (cyclo(GG[NMeF][F(4amPEG2NHRDOTAGA-Lu)][hS(Pr)]WGK(COpipzaa)D[dP]); also: Lu complex) [Example C33] . 0.012

Report the value of IC50 obtained on human FAP (Homo sapiens) for Gly-Gly-NMePhe-F(4amPEG2NHDOTA-Lu)-Q(Pyrro(2CN4F2))-Trp-Gly-K(COpipzaa)-Asp-D-Pro (cyclo(GG[NMeF][F(4amPEG2NHDOTA-Lu)][Q(Pyrro(2CN4F2))]WGK(COpipzaa)D[dP]); also: Lu complex) [Example C19] . 0.018

Report the value of IC50 obtained on human FAP (Homo sapiens) for Gly-Gly-NMePhe-F(4OEtNHDOTA-Ga)-Ahp-Trp-Gly-Tyr-Asp-D-Pro (cyclo(GG[NMeF][F(4OEtNHDOTA-Ga)][Ahp(2)]WGYD[dP]); also: Ga complex of DOTA) [Example C51] . 0.03

Report the value of IC50 obtained on human FAP (Homo sapiens) for Glu-Gly-NMePhe-F(4amPEG2NHDOTA-Lu)-hS(Pr)-Trp-Gly-K(COpipzaa)-Asp-D-Pro (cyclo(EG[NMeF][F(4amPEG2NHDOTA-Lu)][hS(Pr)]WG[K(COpipzaa)]D[dP]); also: Lu complex of DOTA) [Example C5] . 0.019

Report the value of IC50 obtained on human FAP (Homo sapiens) for Gly-Gly-NMePhe-F(4amPEG2NHNODAGA-Ga)-hS(Pr)-Trp-Gly-K(COpipzaa)-Asp-D-Pro (cyclo(GG[NMeF][F(4amPEG2NHNODAGA-Ga)][hS(Pr)]WGK(COpipzaa)D[dP]); also: Ga complex) [Example C40] . 0.006

Report the value of IC50 obtained on human FAP (Homo sapiens) for K(COpipzaa)-Gly-NMePhe-F(4OEtNHDOTA-Lu)-Ahp-Trp-Gly-Tyr-Asp-D-Pro (cyclo(K(COpipzaa″)G[NMeF][F(4OEtNHDOTA-Lu)][Ahp(2)]WGYD[dP]); also: Lu complex) [Example C25] . 0.098

Report the value of IC50 obtained on human FAP (Homo sapiens) for Gly-Gly-NMePhe-F(4OEtNHDOTA-Ga)-Ahp-Trp-Gly-K(COpipzaa)-Asp-D-Pro (cyclo(GG[NMeF][F(4OEtNHDOTA-Ga)][Ahp(2)]WG[K(COpipzaa)]D[dP]); also: Ga complex of DOTA) [Example C50] . 0.046

Report the value of IC50 obtained on human FAP (Homo sapiens) for Glu-Gly-NMe3PyA-F(4amPEG2NHDOTA-Lu)-hS(Pr)-W7N-Gly-K(COpipzaa)-Asp-D-Pro [Example C7] . 0.014

Report the value of IC50 obtained on human FAP (Homo sapiens) for Gly-Gly-NMePhe-F(4amPEG2NHDOTA-Lu)-Ahp-Trp-Gly-K(COpipzaa)-Asp-D-Pro (cyclo(GG[NMeF][F(4amPEG2NHDOTA-Lu)][Ahp(2)]WGK(COpipzaa)D[dP]); also: Lu complex) [Example C13] . 0.004

Report the value of IC50 obtained on human FAP (Homo sapiens) for Gly-Gly-NMePhe-F(4OEtNHDOTA-Lu)-Ahp-Trp-Gly-Tyr-Asp-D-Pro (cyclo(GG[NMeF][F(4OEtNHDOTA-Lu)][Ahp(2)]WGYD[dP]); also: Lu complex of DOTA) [Example C23] . 0.016

Report the value of IC50 obtained on human FAP (Homo sapiens) for Gly-Gly-NMePhe-F4(amMeGlyDOTALu)-Ahp-Trp-Gly-Tyr-Asp-D-Pro (cyclo(GG[NMeF][F4(amMeGlyDOTALu)][Ahp(2)]WGYD[dP]); also: Lu complex) [Example C8] . 0.007

Report the value of IC50 obtained on human FAP (Homo sapiens) for hSer-Gly-NMe3PyA-F(4amPEG2NHDOTA-Lu)-hS(Pr)-W7N-Gly-K(COpipzaa)-Asp-D-Pro [Example C6] . 0.024

Report the value of IC50 obtained on human FAP (Homo sapiens) for Gly-Gly-NMePhe-F(4amPEG2NHDOTA-Lu)-Ahp-Trp-Gly-Tyr-Asp-D-Pro (cyclo(GG[NMeF][F(4amPEG2NHDOTA-Lu)][Ahp(2)]WGYD[dP]); also: Lu complex) [Example C15] . 0.003

Report the value of IC50 obtained on human FAP (Homo sapiens) for Gly-Gly-NMePhe-F(4amPEG2NHRDOTAGA-Ga)-hS(Pr)-Trp-Gly-K(COpipzaa)-AsI-D-Pro (cyclo(GG[NMeF][F(4amPEG2NHRDOTAGA-Ga)][hS(Pr)]WGK(COpipzaa)D[dP]); also: Ga complex) [Example C39] . 0.015

Report the value of IC50 obtained on human FAP (Homo sapiens) for Gly-Gly-NMePhe-F(4OEtNHRDOTAGA-Lu)-Ahp-Trp-Gly-Tyr-Asp-D-Pro (cyclo(GG[NMeF][F(4OEtNHRDOTAGA-Lu)][Ahp(2)]WGYD[dP]); also: Lu complex of DOTAGA) [Example C31] . 0.007

Report the value of IC50 obtained on human FAP (Homo sapiens) for Gly-Gly-NMePhe-F4(amBAlaDOTALu)-Ahp-Trp-Gly-Tyr-Asp-D-Pro (cyclo(GG[NMeF][F4(amBAlaDOTALu)][Ahp(2)]WGYD[dP]); also: Lu complex) [Example C10] . 0.01
